test: Cmax in pancreatitis Sprague-Dawley rat blood at 30 mg/kg, iv after 30 mins; assay type: ADME, organism-based; set-up: dose 30 mg/kg, route intravenous

molecule: C[C@@H](O)[C@H]1C(=O)N2C(C(=O)O)=C(SCCN=CN)C[C@H]12 [IMIPENEM ANHYDROUS]
Cmax, µg/mL: 53.9

----------
assay: Selectivity ratio of AUC in pancreatitis Sprague-Dawley rat peritoneal fluid to AUC in pancreatitis Sprague-Dawley rat blood at 30 mg/kg, iv after 30 mins; type: ADME, organism-based; set-up: dose 30 mg/kg, route intravenous; conditions: read-out: Ratio AUC

molecule: C[C@@H](O)[C@H]1C(=O)N2C(C(=O)O)=C(SCCN=CN)C[C@H]12 [IMIPENEM ANHYDROUS]
Kp at 0.5 h: 1.08
